biological target: L-glutaminase present in mice brain homogenate (Glutaminase(Brain)) (Mus musculus); assay: Glutaminase enzyme activity using glutaminase enzyme from mice brain/kidney homogenate (Nessler's reagent, ammonia); type: biochemical; details: 1 μM; mice brain homogenate; read-out: Glutaminase(Brain) activity % inhibition @1 μM
Sequence (D3Z7P3 55-674): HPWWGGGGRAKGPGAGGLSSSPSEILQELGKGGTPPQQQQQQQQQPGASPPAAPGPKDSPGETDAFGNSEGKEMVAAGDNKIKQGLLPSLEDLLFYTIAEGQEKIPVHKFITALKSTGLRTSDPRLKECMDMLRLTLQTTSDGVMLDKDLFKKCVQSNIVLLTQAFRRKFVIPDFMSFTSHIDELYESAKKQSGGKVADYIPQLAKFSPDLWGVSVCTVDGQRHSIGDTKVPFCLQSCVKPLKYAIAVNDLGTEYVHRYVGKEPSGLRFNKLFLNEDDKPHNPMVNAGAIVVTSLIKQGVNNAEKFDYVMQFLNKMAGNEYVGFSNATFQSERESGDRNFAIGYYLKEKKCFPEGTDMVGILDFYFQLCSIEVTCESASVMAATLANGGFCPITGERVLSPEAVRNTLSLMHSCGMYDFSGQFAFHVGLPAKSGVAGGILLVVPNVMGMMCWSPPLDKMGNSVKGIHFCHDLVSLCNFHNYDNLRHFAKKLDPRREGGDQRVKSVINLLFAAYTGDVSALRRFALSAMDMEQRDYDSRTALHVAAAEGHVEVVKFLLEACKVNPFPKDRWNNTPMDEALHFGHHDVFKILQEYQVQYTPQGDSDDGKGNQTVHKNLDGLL
observable: inhibition at 1 µM

>>> df
                               input_smiles      result
0  O=C(Cc1cccnc1)Nc1ccc(CCCCc2nnc(NC(=O)Cc3ccccc3F)s2)cn1  75 to 100%
1  O=C(Cc1cccc(OC(F)(F)F)c1)Nc1ccc(CCCCc2ccc(NC(=O)Cc3cccc(OC(F)(F)F)c3)nc2)cn1       < 25%
2  O=C(Cc1ccccn1)Nc1ccc(CCCCc2nnc(NC(=O)Cc3cccnc3)s2)c(F)n1  75 to 100%
3  O=C(Cc1ccccc1Cl)Nc1ccc(CCCCc2nnc(NC(=O)Cc3ccccn3)s2)cn1   50 to 75%
4  O=C(Cc1cccnc1)Nc1nnc(CCCCc2ccc(NC(=O)Cc3cccc(OC(F)(F)F)c3)c(F)c2)s1       < 25%

Query: Fill blank: measured inhibition at 1 µM of the molecule O=C(Cc1ccccc1Cl)Nc1ccc(CCCCc2nnc(NC(=O)Cc3cccnc3)s2)cn1 is ____.
Response: 75 to 100%

Query: Fill blank: measured inhibition at 1 µM of the molecule CS(=O)(=O)Nc1cccc(CC(=O)Nc2nnc(CCCCc3ccc(NC(=O)Cc4cccc(OC(F)(F)F)c4)nc3)s2)c1 is ____.
Response: 75 to 100%

Query: Fill blank: measured inhibition at 1 µM of the molecule O=C(Cc1cccc(OC(F)(F)F)c1)Nc1ccc(CCCCc2nnc(NC(=O)Cc3cccnc3)s2)nc1 is ____.
Response: < 25%
